assay name: solvent given as SMILES
assay setup: in Cc1ccccc1
measurement type: emission maximum (nm)

[[record]]
compound = "CCCCC(CC)CN1C(=O)c2cc(Oc3ccc(OC)cc3)c3c4c(Oc5ccc(C(C)(C)C)cc5)cc5c6c(cc(Oc7ccc(C(C)(C)C)cc7)c(c7c(Oc8ccc(OC)cc8)cc(c2c37)C1=O)c64)C(=O)N(c1c(C(C)C)cccc1C(C)C)C5=O (centres undefined)"
assay_value = 608

[[record]]
compound = "CCN(CC)c1ccc(-c2ccc(-c3nc(N4CCOCC4)c4ccccc4n3)s2)cc1"
assay_value = 476

[[record]]
compound = "CC1(C)c2ccccc2-n2c(-c3ccc(N4c5ccccc5Oc5ccccc54)cc3)nc3cccc1c32"
assay_value = 502

[[record]]
compound = "CC(C)(C)c1ccc2c(c1)c1cc(C(C)(C)C)ccc1n2-c1ccc(-c2nc(-c3ccc(-n4c5ccc(C(C)(C)C)cc5c5cc(C(C)(C)C)ccc54)cc3)nc(-c3ccc(P(=O)(c4ccccc4)c4ccccc4)cc3)n2)cc1"
assay_value = 474.19

[[record]]
compound = "O=S(=O)(c1ccccc1)c1ccc(-c2ccc3c4ccc(-c5ccc(S(=O)(=O)c6ccccc6)cc5)cc4n(-c4ccccc4)c3c2)cc1"
assay_value = 413

[[record]]
compound = "CCN(CC)c1ccc2cc(/C=C/c3cccc[n+]3CCCS(=O)(=O)[O-])c(=O)oc2c1"
assay_value = 641

[[record]]
compound = "CN(C)c1ccc(/C=C/C(=O)O)cc1"
assay_value = 413

[[record]]
compound = "COc1ccc2c(=O)c3c([nH]c2c1)-c1cc(Cl)ccc1NC3(C)C"
assay_value = 477

[[record]]
compound = "N#Cc1c(-n2c3ccccc3c3cc(Br)ccc32)c(C#N)c(-n2c3ccccc3c3cc(Br)ccc32)c(-n2c3ccccc3c3cc(Br)ccc32)c1-n1c2ccccc2c2cc(Br)ccc21"
assay_value = 515

[[record]]
compound = "CN(C)c1ccc(-c2nc3c(c4c2-c2ccccc2CC4)-c2ccccc2CC3)cc1"
assay_value = 436

[[record]]
compound = "CC(=O)O[B-]1(OC(C)=O)OC(/C=C/c2cccc3ccccc23)=CC(/C=C/c2cccc3ccccc23)=[O+]1"
assay_value = 529

[[record]]
compound = "CCCCCCCCCCCCC(CCCCCCCCCC)Cn1c2cc(/C=C/C=C/c3nc4ccccc4s3)c3cccc4c5cccc6c(/C=C/C=C/c7nc8ccccc8s7)cc1c(c65)c2c34 (centres undefined)"
assay_value = 604

[[record]]
compound = "Cc1cc(C)c(B(c2ccccc2N(c2ccccc2)c2ccccc2)c2c(C)cc(C)cc2C)c(C)c1"
assay_value = 498

[[record]]
compound = "F[B-]1(F)OC(c2ccc(C(F)(F)F)cc2)=Cc2cc(Cl)nc[n+]21"
assay_value = 434

[[record]]
compound = "CCCCCCCCCCn1nnc(-c2ccc(C#Cc3ccc(C#Cc4ccc(-c5nnn(CCCCCCCCCC)n5)cc4)c4nc5c6ccccc6c6ccccc6c5nc34)cc2)n1"
assay_value = 488

[[record]]
compound = "c1ccc([B-]2(c3ccccc3)Oc3ccc4ccccc4c3-c3c4ccccc4nc[n+]32)cc1"
assay_value = 543

[[record]]
compound = "COc1ccc(-c2nc(C)cc(-c3ccc(-n4c5ccccc5c5ccccc54)cc3)n2)cc1"
assay_value = 390

[[record]]
compound = "CC(C)(C)c1ccc(C2=C(Br)C3=C(c4ccccc4)c4c(Br)c(-c5ccc(C(C)(C)C)cc5)c(-c5ccc(C(C)(C)C)cc5)n4[B-](F)(F)[N+]3=C2c2ccc(C(C)(C)C)cc2)cc1"
assay_value = 618

[[record]]
compound = "N#Cc1ccc(N(c2ccc(C#N)cc2)c2ccc3c4cccc5c(N(c6ccc(C#N)cc6)c6ccc(C#N)cc6)ccc(c6cccc2c63)c54)cc1"
assay_value = 513

[[record]]
compound = "CC(C)(C)c1ccc2c(c1)c1cc(C(C)(C)C)ccc1n2-c1ccc(S(=O)(=O)c2cccc(S(=O)(=O)c3ccc(-n4c5ccc(C(C)(C)C)cc5c5cc(C(C)(C)C)ccc54)cc3)c2)cc1"
assay_value = 422

[[record]]
compound = "O=C1c2ccc(N(c3ccccc3)c3ccccc3)cc2C(=O)c2ccc(N(c3ccccc3)c3ccccc3)cc21"
assay_value = 601

[[record]]
compound = "C=Cc1ccc(-c2ccc(-c3nnc(-c4ccc(-c5nnc(-c6ccc(-c7ccc(C=C)cc7)s6)o5)cc4)o3)s2)cc1"
assay_value = 399

[[record]]
compound = "Cc1ccc(-n2c(-c3ccccc3NS(=O)(=O)c3ccc(C)cc3)nc3c4ccccc4c4ccccc4c32)cc1"
assay_value = 365

[[record]]
compound = "Cc1n[nH]c2c1C(c1ccc([N+](=O)[O-])cc1)C(C#N)=C(N)O2 (centres undefined)"
assay_value = 387

[[record]]
compound = "CC(C)(C)c1ccc(C2=C(c3ccc(C(C)(C)C)cc3)C(c3ccc(C(C)(C)C)cc3)=[N+]3C2=C(c2ccccc2)c2c(-c4ccc(C(C)(C)C)cc4)c(-c4ccc(C(C)(C)C)cc4)c(-c4ccc(C(C)(C)C)cc4)n2[B-]3(F)F)cc1"
assay_value = 639

[[record]]
compound = "CN(C)c1ccc(-c2c(/C=C3/C=Cc4ccccc4N3C)c(=O)c2=O)cc1"
assay_value = 435

[[record]]
compound = "CCCCC1(c2ccccc2)Nc2c(-c3ccc(N(C)C)cc3)ccc(-c3ccc(N(C)C)cc3)c2N=C1c1ccccc1 (centres undefined)"
assay_value = 547

[[record]]
compound = "CN(C)c1cc(C#N)c(N(C)C)c(C#N)c1"
assay_value = 516.8

[[record]]
compound = "C=CCOC(=O)C(C#N)=C1C=C(/C=C/c2ccc(N(C)C)cc2)OC(/C=C/c2ccc(N(C)C)cc2)=C1"
assay_value = 556

